Measured half-life by item
experiment: Stability in rat plasma assessed as half life; type: ADME, cell-free
reportedMetric: half-life

O=C1/C(=N\Nc2nccs2)C(c2ccccc2)=NN1c1nc(-c2ccccc2)cs1 ... > 4.82 h
CCOC(=O)[C@H](CCc1ccccc1)N[C@@H](C)C(=O)N1CCC[C@H]1C(=O)O.O=C(O)/C=C\C(=O)O [ENALAPRIL MALEATE] ... 0.167 h
CN(C)C1CCN(C(=O)c2ccc(N3N=C(c4ccccc4)/C(=N/Nc4ccccc4)C3=O)cc2)CC1 ... > 4.82 h

* * *

assay: Drug recovery in human liver microsomes at 100 uM incubated for 60 mins in absence of NADPH by LC-MS/MS analysis; assay type: ADME, Microsome; details: read-out: Drug recovery
reportedMetric: remaining at 1 h, 100 µM (%)

CN(C)C1CCN(C(=O)c2ccc(N3N=C(c4ccccc4)/C(=N/Nc4ccccc4)C3=O)cc2)CC1 ... 102

Where these numbers come from: ChEMBL document CHEMBL5325413
